Reference source for all entries: ChEMBL document CHEMBL1152232

- measurement target: Muscarinic acetylcholine receptors; M2 & M3 (Homo sapiens) (UniProt P20309+P08172)
- test summary: Selectivity for human recombinant muscarinic M3 receptor over human recombinant muscarinic M2 receptor
experimental endpoint: Selectivity ratio
Number only, no unit.

Observe how each entry below is paired with its result.
compound	measurement target	Selectivity ratio
CCOC(=O)c1ccc(NC(=O)N[C@@H](Cc2ccc(O)cc2)C(=O)NC2CCN(Cc3cccc(OC)c3)C2)cc1 (some centres undefined)	Muscarinic acetylcholine receptors; M2 & M3 (Homo sapiens) (UniProt P20309+P08172)	10
CCOC(=O)c1ccc(NC(=O)N[C@@H](Cc2ccc(O)cc2)C(=O)NC2CCN(Cc3ccccc3OC)C2)cc1 (some centres undefined)	Muscarinic acetylcholine receptors; M2 & M3 (Homo sapiens) (UniProt P20309+P08172)	10

Let's switch to this compound now.
In: Field request: Selectivity ratio | item: CCOC(=O)c1ccc(NC(=O)N[C@@H](Cc2ccc(O)cc2)C(=O)NC2CCN(CC)C2)cc1 (some centres undefined)
Out: 10

----------
Recorded measurements of Kb, one per entry
- measurement target: Muscarinic acetylcholine receptor M1 (Homo sapiens)
- test summary: Antagonist activity at human recombinant muscarinic M1 receptor expressed in CHO cells assessed as inhibition of acetylcholine-induced intracellular Ca2+ mobilization by FLIPR assay
- Format: functional, cell-based
- condition: read-out: pA2 (converted)
Response body: numeric value in nM, unit text excluded.

In: Param readout = Kb; param system = Muscarinic acetylcholine receptor M1 (Homo sapiens); param query = Cc1noc(-c2ccc(NC(=O)N[C@@H](Cc3ccc(O)cc3)C(=O)N[C@H]3CCC[N+](C)(Cc4ccc(O)cc4)C3)cc2)n1 (stereo not given in full) ; response: value
Out: 158

----------
- measurement target: Muscarinic acetylcholine receptor M3 (Homo sapiens, UniProt P20309)
- Sequence (P20309 whole entry): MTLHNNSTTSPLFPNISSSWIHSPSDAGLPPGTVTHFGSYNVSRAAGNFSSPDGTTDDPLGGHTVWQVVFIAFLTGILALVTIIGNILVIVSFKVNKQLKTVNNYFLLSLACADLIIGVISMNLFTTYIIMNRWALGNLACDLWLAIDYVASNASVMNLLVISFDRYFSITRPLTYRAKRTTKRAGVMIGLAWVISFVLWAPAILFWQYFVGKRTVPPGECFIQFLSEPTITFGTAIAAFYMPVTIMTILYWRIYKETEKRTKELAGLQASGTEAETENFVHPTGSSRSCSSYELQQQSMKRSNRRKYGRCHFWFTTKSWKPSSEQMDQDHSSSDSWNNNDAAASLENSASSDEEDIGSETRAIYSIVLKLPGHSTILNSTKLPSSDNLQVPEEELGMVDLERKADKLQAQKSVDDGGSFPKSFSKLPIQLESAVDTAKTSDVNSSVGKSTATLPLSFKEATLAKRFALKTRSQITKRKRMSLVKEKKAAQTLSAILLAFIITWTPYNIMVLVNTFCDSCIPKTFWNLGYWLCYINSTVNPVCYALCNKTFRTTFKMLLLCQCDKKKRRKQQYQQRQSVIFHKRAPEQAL
- test summary: Antagonist activity at human recombinant muscarinic M3 receptor expressed in CHO cells assessed as inhibition of acetylcholine-induced intracellular Ca2+ mobilization by FLIPR assay
Entries and their pIC50
To interpret pIC50, take it as minus log10 of a concentration measured in moles per litre.

Some entries whose results are on file:
molecule	experimental endpoint	observed value
CCOC(=O)c1ccc(NC(=O)N[C@@H](Cc2ccc(C#N)cc2)C(=O)N[C@H]2CC[N+](C)(Cc3ccc4c(c3)OCO4)C2)cc1 (stereo not given in full)	pIC50	7.30
CC(C)COC(=O)c1ccc(NC(=O)N[C@@H](Cc2ccc(O)cc2)C(=O)NC2CCN(Cc3ccc(O)cc3)C2)cc1 (stereo not given in full)	pIC50	6.60
CNC(=O)c1ccc(NC(=O)N[C@@H](Cc2ccc(O)cc2)C(=O)NC2CCN(Cc3ccc(C#N)cc3)C2)cc1 (stereo not given in full)	pIC50	5.60
CCOC(=O)c1ccc(NC(=O)N[C@@H](Cc2ccc(O)cc2)C(=O)NC2CCN(Cc3cccc(C(F)(F)F)c3)C2)cc1 (stereo not given in full)	pIC50	7.80
N#Cc1ccc(CN2CCC(NC(=O)[C@H](Cc3ccc(O)cc3)NC(=O)Nc3ccc(C(=O)NCc4ccccc4)cc3)C2)cc1 (stereo not given in full)	pIC50	5.80
CCOC(=O)c1ccc(NC(=O)N[C@@H](Cc2ccc(O)cc2)C(=O)N[C@H]2CC[N+](C)(Cc3ccc(F)cc3)C2)cc1 (stereo not given in full)	pIC50	8.20

In: What value of pIC50 has been reported for the following molecule? CCOC(=O)c1ccc(NC(=O)N[C@@H](Cc2ccc(O)cc2)C(=O)NC2CCN(Cc3ccc(OC)cc3)C2)cc1 (stereo not given in full)
Out: 7.70

In: And for CCNC(=O)c1ccc(NC(=O)N[C@@H](Cc2ccc(O)cc2)C(=O)NC2CCN(Cc3ccc(C#N)cc3)C2)cc1 (stereo not given in full) ?
Out: 6.50

In: Please do the same for CCOC(=O)c1ccc(NC(=O)N[C@@H](Cc2ccc(O)cc2)C(=O)N[C@H]2CC[N+](C)(Cc3ccc4c(c3)OCO4)C2)cc1 (stereo not given in full) as well.
Out: 8.20

In: Next record, please: CC(C)NC(=O)c1ccc(NC(=O)N[C@@H](Cc2ccc(O)cc2)C(=O)NC2CCN(Cc3ccc(C#N)cc3)C2)cc1 (stereo not given in full)
Out: 7.00

In: // next record O=C(Nc1ccc(C(=O)OCC2CC2)cc1)N[C@@H](Cc1ccc(O)cc1)C(=O)NC1CCN(Cc2ccc(O)cc2)C1 (stereo not given in full)
Out: 7.00

In: Next: CCOC(=O)c1ccc(NC(=O)N[C@@H](Cc2ccc(O)cc2)C(=O)NC2CCN(Cc3cccc(Cl)c3)C2)cc1 (stereo not given in full)
Out: 8.10

In: Also N#Cc1ccc(CN2CCC(NC(=O)[C@H](Cc3ccc(O)cc3)NC(=O)Nc3ccc(C(=O)N4CCOCC4)cc3)C2)cc1 (stereo not given in full) , if possible.
Out: 6.00

In: Further, for CCOC(=O)c1ccc(NC(=O)N[C@@H](Cc2ccc(O)cc2)C(=O)NC2CCN(Cc3cccc(OC)c3)C2)cc1 (stereo not given in full) ?
Out: 7.60

In: Here is the next molecule: CCOC(=O)c1ccc(NC(=O)N[C@@H](Cc2ccc(C(=O)c3ccccc3)cc2)C(=O)N[C@H]2CC[N+](C)(Cc3ccc4c(c3)OCO4)C2)cc1 (stereo not given in full)
Out: 7.90

----------
- measurement target: Muscarinic acetylcholine receptor M1 (Homo sapiens)
- Sequence (P11229 whole entry): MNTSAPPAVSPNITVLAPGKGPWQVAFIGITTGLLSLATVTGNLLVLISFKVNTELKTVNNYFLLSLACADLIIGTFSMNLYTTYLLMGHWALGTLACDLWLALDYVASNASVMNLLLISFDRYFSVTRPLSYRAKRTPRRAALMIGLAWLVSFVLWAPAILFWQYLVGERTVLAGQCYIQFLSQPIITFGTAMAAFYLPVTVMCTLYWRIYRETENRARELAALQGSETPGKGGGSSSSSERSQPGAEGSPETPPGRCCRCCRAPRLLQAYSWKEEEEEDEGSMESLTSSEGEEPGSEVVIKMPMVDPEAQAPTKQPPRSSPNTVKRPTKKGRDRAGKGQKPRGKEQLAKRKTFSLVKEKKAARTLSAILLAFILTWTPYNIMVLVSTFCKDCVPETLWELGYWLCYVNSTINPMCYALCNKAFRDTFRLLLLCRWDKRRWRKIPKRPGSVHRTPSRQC
- test summary: Antagonist activity at human recombinant muscarinic M1 receptor expressed in CHO cells assessed as inhibition of acetylcholine-induced intracellular Ca2+ mobilization by FLIPR assay
pIC50: −log10 of the molar value.
Classification field: class 1 = pIC50 at or over 7; class 0 = pIC50 under 7.

compound	class label
CCOC(=O)c1ccc(NC(=O)N[C@@H](Cc2ccc(OC)c(OC)c2)C(=O)N[C@H]2CC[N+](C)(Cc3ccc4c(c3)OCO4)C2)cc1 (some centres not stated)	class 0

In: // inclusive: pIC50 at least 7? input: CCOC(=O)c1ccc(NC(=O)N[C@@H](Cc2ccc(O)cc2)C(=O)NC2CCN(Cc3cccc(C#N)c3)C2)cc1 (some centres not stated)
Out: class 0

In: # iterate: CCOC(=O)c1ccc(NC(=O)N[C@@H](Cc2ccc(-c3ccccc3)cc2)C(=O)N[C@H]2CC[N+](C)(Cc3ccc4c(c3)OCO4)C2)cc1 (some centres not stated)
Out: class 1

In: Proceed to N#Cc1ccc(CN2CCC(NC(=O)[C@H](Cc3ccc(O)cc3)NC(=O)Nc3ccc(C(=O)N4CCOCC4)cc3)C2)cc1 (some centres not stated)
Out: class 0

In: # repeat for CCOC(=O)c1ccc(NC(=O)N[C@@H](Cc2ccc(O)cc2)C(=O)NC2CCN(Cc3ccc4c(c3)OCO4)C2)cc1 (some centres not stated)
Out: class 0

In: Would you kindly repeat that for CCOC(=O)c1ccc(NC(=O)N[C@@H](Cc2ccc(C(=O)c3ccccc3)cc2)C(=O)N[C@H]2CC[N+](C)(Cc3ccc4c(c3)OCO4)C2)cc1 (some centres not stated) ?
Out: class 1

----------
- measurement target: Muscarinic acetylcholine receptor M1 (Homo sapiens, UniProt P11229)
- test summary: Antagonist activity at human recombinant muscarinic M1 receptor expressed in CHO cells assessed as inhibition of acetylcholine-induced intracellular Ca2+ mobilization by FLIPR assay
Catalogue of molecules with associated pIC50
To interpret pIC50, take it as minus log10 of a concentration measured in moles per litre.

Example molecules with recorded pIC50:
molecule	pIC50
CCOC(=O)c1ccc(NC(=O)N[C@@H](Cc2ccc(O)cc2)C(=O)N[C@H]2CC[N+](C)(Cc3ccc4c(c3)OCO4)C2)cc1 (some centres undefined)	6.80
CC(C)OC(=O)c1ccc(NC(=O)N[C@@H](Cc2ccc(O)cc2)C(=O)NC2CCN(Cc3ccc(O)cc3)C2)cc1 (some centres undefined)	6.00

Now look at this one.
In: # lookup: pIC50 of CCOC(=O)c1ccc(NC(=O)N[C@@H](Cc2ccc(O)cc2)C(=O)NC2CCN(CC3CC3)C2)cc1 (some centres undefined)
Out: 6.20
